- Tested on: RSK3(Kin.Dom.2-C-terminal);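 also: KINOMEscan kinase panel screen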
- Construct: gene RPS6KA2
- Condition Summary: concentration: 1 μM, replicates: in singlicate; n = 1
Reported %Inh by item:
Write it as a number; the unit % goes unstated.

Answered examples (5):
Cc1cccc(-c2nc(Nc3ccncc3)c3ccccc3n2)n1    0
Cn1cncc1-c1ccc2ncnc(Nc3ccc(OCc4ccccc4)cc3)c2c1    0
Cc1cccc(-c2nc(Nc3ccc4[nH]ncc4c3)c3ccccc3n2)n1    1
Cc1cccc(-c2nc(Nc3cccc(C(N)=O)c3)c3ccccc3n2)n1    27
O=C(Nc1ccccc1)Nc1cccc(Oc2ccc3nccn3n2)c1    14

// query Quick check: %Inh of COc1cc2ncn(-c3cc(OCC4CCCO4)c(C(N)=O)s3)c2cc1OC (stereo not shown) ?
// result 2

// query Entry Cc1cccc(-c2cc(Nc3ccncc3)c3ccccc3n2)n1 please
// result 10
